Please go through the items and note down their Ca.
species on record: Rattus norvegicus; assay: Open TG-GATES - Regimen: Daily Repeat; type: toxicity, organism-based, Sprague-Dawley; parameters: regimen Daily Repeat, gender Male, age 6 weeks; conditions: in vivo, po, 0 mg/kg, 72 h, tissue Plasma, route gavage, dose level Control, time 3 day
Give just the number in mg/dL; leave the unit off.

input: Report measured Ca; entry is `CCOc1ccc(NC(C)=O)cc1`
output: 11.1

input: Report measured Ca; entry is `COC(=O)C1=C(C)NC(C)=C(C(=O)OC)C1c1ccccc1[N+](=O)[O-]`
output: 11.1

input: Report measured Ca; entry is NC1=NC(=O)C(c2ccccc2)O1 (stereo not drawn)
output: 10.7

input: Report measured Ca; entry is CN(C)CCC(c1ccc(Cl)cc1)c1ccccn1 (stereo not drawn)
output: 10.5

input: Report measured Ca; entry is `CNC(=C[N+](=O)[O-])NCCSCc1ccc(CN(C)C)o1`
output: 10.9

input: Report measured Ca; entry is `CCCc1cc(=O)[nH]c(=S)[nH]1`
output: 11.5

input: Report measured Ca; entry is `CC(C)NNC(=O)c1ccncc1`
output: 10.8

input: Report measured Ca; entry is `Brc1ccccc1`
output: 10.2

input: Report measured Ca; entry is `CN/C(=N/CCSCc1nc[nH]c1C)NC#N`
output: 10.7

input: Report measured Ca; entry is CN1C(=O)CCS(=O)(=O)C1c1ccc(Cl)cc1 (stereo not drawn)
output: 10.9

input: Report measured Ca; entry is `Cc1nnc2n1-c1ccc(Cl)cc1C(c1ccccc1Cl)=NC2`
output: 11.3

input: Report measured Ca; entry is `O=C(OC[C@H]1O[C@@H](OC(=O)c2cc(O)c(O)c(OC(=O)c3cc(O)c(O)c(O)c3)c2)[C@H](OC(=O)c2cc(O)c(O)c(OC(=O)c3cc(O)c(O)c(O)c3)c2)[C@@H](OC(=O)c2cc(O)c(O)c(OC(=O)c3cc(O)c(O)c(O)c3)c2)[C@@H]1OC(=O)c1cc(O)c(O)c(OC(=O)c2cc(O)c(O)c(O)c2)c1)c1cc(O)c(O)c(OC(=O)c2cc(O)c(O)c(O)c2)c1`
output: 10.9

input: Report measured Ca; entry is `Nc1c2c(nc3ccccc13)CCCC2`
output: 10.9

---

organism: Rattus norvegicus; assay: Open TG-GATES - Regimen: Daily Repeat; format: toxicity, organism-based, Sprague-Dawley; set-up: regimen Daily Repeat, gender Male, age 6 weeks; settings: in vivo, po, 300 mg/kg, […], tissue Blood, route gavage, dose level Middle, time 7 day
Please go through the items and note down their Eos.
Give just the number in %; leave the unit off.

input: Report measured Eos; entry is `CNC(=C[N+](=O)[O-])NCCSCc1ccc(CN(C)C)o1`
output: 1

input: Report measured Eos; entry is `COC(=O)C1=C(C)NC(C)=C(C(=O)OC)C1c1ccccc1[N+](=O)[O-]`
output: 1

input: Report measured Eos; entry is `O=C(OC[C@H]1O[C@@H](OC(=O)c2cc(O)c(O)c(OC(=O)c3cc(O)c(O)c(O)c3)c2)[C@H](OC(=O)c2cc(O)c(O)c(OC(=O)c3cc(O)c(O)c(O)c3)c2)[C@@H](OC(=O)c2cc(O)c(O)c(OC(=O)c3cc(O)c(O)c(O)c3)c2)[C@@H]1OC(=O)c1cc(O)c(O)c(OC(=O)c2cc(O)c(O)c(O)c2)c1)c1cc(O)c(O)c(OC(=O)c2cc(O)c(O)c(O)c2)c1`
output: 1.4

input: Report measured Eos; entry is `Cc1nnc2n1-c1ccc(Cl)cc1C(c1ccccc1Cl)=NC2`
output: 1

input: Report measured Eos; entry is `CN/C(=N/CCSCc1nc[nH]c1C)NC#N`
output: 1

input: Report measured Eos; entry is `CCOc1ccc(NC(C)=O)cc1`
output: 1

---

Please go through the items and note down their ALP.
species on record: Rattus norvegicus; test: Open TG-GATES - Regimen: Single; format: toxicity, organism-based, Sprague-Dawley; parameters: regimen Single, gender Male, age 6 weeks; conditions: in vivo, po, 300 mg/kg, 3 h, tissue Plasma, route gavage, dose level Middle
Give just the number in IU/L; leave the unit off.

input: Report measured ALP; entry is CN/C(=N/CCSCc1nc[nH]c1C)NC#N [CIMETIDINE]
output: 1248.6

input: Report measured ALP; entry is O=C(OC[C@H]1O[C@@H](OC(=O)c2cc(O)c(O)c(OC(=O)c3cc(O)c(O)c(O)c3)c2)[C@H](OC(=O)c2cc(O)c(O)c(OC(=O)c3cc(O)c(O)c(O)c3)c2)[C@@H](OC(=O)c2cc(O)c(O)c(OC(=O)c3cc(O)c(O)c(O)c3)c2)[C@@H]1OC(=O)c1cc(O)c(O)c(OC(=O)c2cc(O)c(O)c(O)c2)c1)c1cc(O)c(O)c(OC(=O)c2cc(O)c(O)c(O)c2)c1 [TANNIC ACID]
output: 1029.8

---

species: Rattus norvegicus; test: Open TG-GATES - Regimen: Single; assay type: toxicity, organism-based, Sprague-Dawley; design: regimen Single, gender Male, age 6 weeks; conditions: in vivo, po, 100 mg/kg, 24 h, tissue Plasma, route gavage, dose level Low
With a cut-off of 3 g/dL, any RALB strictly below it is called Yes; any RALB meeting it or above is called No.

input: Does this molecule meet the criterion RALB < 3 g/dL? `CN/C(=N/CCSCc1nc[nH]c1C)NC#N`
output: No

input: Does this molecule meet the criterion RALB < 3 g/dL? `O=C(OC[C@H]1O[C@@H](OC(=O)c2cc(O)c(O)c(OC(=O)c3cc(O)c(O)c(O)c3)c2)[C@H](OC(=O)c2cc(O)c(O)c(OC(=O)c3cc(O)c(O)c(O)c3)c2)[C@@H](OC(=O)c2cc(O)c(O)c(OC(=O)c3cc(O)c(O)c(O)c3)c2)[C@@H]1OC(=O)c1cc(O)c(O)c(OC(=O)c2cc(O)c(O)c(O)c2)c1)c1cc(O)c(O)c(OC(=O)c2cc(O)c(O)c(O)c2)c1`
output: No

input: Does this molecule meet the criterion RALB < 3 g/dL? `CNC(=C[N+](=O)[O-])NCCSCc1ccc(CN(C)C)o1`
output: No

input: Does this molecule meet the criterion RALB < 3 g/dL? `COC(=O)C1=C(C)NC(C)=C(C(=O)OC)C1c1ccccc1[N+](=O)[O-]`
output: Yes

input: Does this molecule meet the criterion RALB < 3 g/dL? `Cc1nnc2n1-c1ccc(Cl)cc1C(c1ccccc1Cl)=NC2`
output: Yes

---

Please go through the items and note down their Plat.
organism: Rattus norvegicus; experiment: Open TG-GATES - Regimen: Single; type: toxicity, organism-based, Sprague-Dawley; parameters: regimen Single, gender Male, age 6 weeks; conditions: in vivo, po, 300 mg/kg, 3 h, tissue Blood, route gavage, dose level Middle
Give just the number in x10_4/uL; leave the unit off.

input: Report measured Plat; entry is `COC(=O)C1=C(C)NC(C)=C(C(=O)OC)C1c1ccccc1[N+](=O)[O-]`
output: 126.5

input: Report measured Plat; entry is `CN/C(=N/CCSCc1nc[nH]c1C)NC#N`
output: 128.8

input: Report measured Plat; entry is `Cc1nnc2n1-c1ccc(Cl)cc1C(c1ccccc1Cl)=NC2`
output: 117

input: Report measured Plat; entry is `O=C(OC[C@H]1O[C@@H](OC(=O)c2cc(O)c(O)c(OC(=O)c3cc(O)c(O)c(O)c3)c2)[C@H](OC(=O)c2cc(O)c(O)c(OC(=O)c3cc(O)c(O)c(O)c3)c2)[C@@H](OC(=O)c2cc(O)c(O)c(OC(=O)c3cc(O)c(O)c(O)c3)c2)[C@@H]1OC(=O)c1cc(O)c(O)c(OC(=O)c2cc(O)c(O)c(O)c2)c1)c1cc(O)c(O)c(OC(=O)c2cc(O)c(O)c(O)c2)c1`
output: 101.9

input: Report measured Plat; entry is `CNC(=C[N+](=O)[O-])NCCSCc1ccc(CN(C)C)o1`
output: 125.4

---

species: Rattus norvegicus; assay: Open TG-GATES - Regimen: Single; type: toxicity, organism-based, Sprague-Dawley; parameters: regimen Single, gender Male, age 6 weeks; settings: in vivo, po, 300 mg/kg, 9 h, tissue Blood, route gavage, dose level Middle
OBSERVABLE: WBC (x10_2/uL)
Give just the number in x10_2/uL; leave the unit off.

input: Report measured WBC; entry is `O=C(OC[C@H]1O[C@@H](OC(=O)c2cc(O)c(O)c(OC(=O)c3cc(O)c(O)c(O)c3)c2)[C@H](OC(=O)c2cc(O)c(O)c(OC(=O)c3cc(O)c(O)c(O)c3)c2)[C@@H](OC(=O)c2cc(O)c(O)c(OC(=O)c3cc(O)c(O)c(O)c3)c2)[C@@H]1OC(=O)c1cc(O)c(O)c(OC(=O)c2cc(O)c(O)c(O)c2)c1)c1cc(O)c(O)c(OC(=O)c2cc(O)c(O)c(O)c2)c1`
output: 92.9

input: Report measured WBC; entry is `CNC(=C[N+](=O)[O-])NCCSCc1ccc(CN(C)C)o1`
output: 76

input: Report measured WBC; entry is `COC(=O)C1=C(C)NC(C)=C(C(=O)OC)C1c1ccccc1[N+](=O)[O-]`
output: 94.7

input: Report measured WBC; entry is `Cc1nnc2n1-c1ccc(Cl)cc1C(c1ccccc1Cl)=NC2`
output: 87.2

input: Report measured WBC; entry is `CN/C(=N/CCSCc1nc[nH]c1C)NC#N`
output: 70.7
